assay: Therapeutic index was expressed as ratio of LD50 for KB cell line to IC50 against Plasmodium falciparum; format: cell-based; conditions: human, KB cells; read-out: TI
Endpoint: selectivity ratio
Answers are plain numbers.

Guide cases for selectivity ratio, answers given:
Compound: O=P(O)(O)C(Nc1ccc(O)nc1)P(=O)(O)O
selectivity ratio: 1.3
--
Compound: CCCCCCc1ccc(NC(P(=O)(O)O)P(=O)(O)O)cc1
selectivity ratio: 8.06
--
Compound: CN(CCCc1ccccc1)CCC(O)(P(=O)(O)O)P(=O)(O)O
selectivity ratio: 16.6

API: the following record is the query input.
Reported selectivity ratio for CCN(CC)C(P(=O)(O)O)P(=O)(O)O [(DIETHYLAMINO)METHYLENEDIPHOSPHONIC ACID] was 8.98

---

assay: in vitro; conditions: human, KB cells (nasopharyngeal carcinoma)
Description: Toxicity evaluated against human nasopharyngeal carcinoma KB cell line
Answer each item with its documented CC50.
Numbers only, in µM.

Answered examples (3):
Structure Notation: CCCCOc1ccc(NC(P(=O)(O)O)P(=O)(O)O)cc1
Value Measured: 210
//
Structure Notation: CCCN(CCC)C(P(=O)(O)O)P(=O)(O)O
Value Measured: 322
//
Structure Notation: O=P(O)(O)C(NC1CCCC1)P(=O)(O)O
Value Measured: 629

Then this molecule:
The molecule listed as CCCCc1ccc(NC(P(=O)(O)O)P(=O)(O)O)cc1 shows CC50 equal to 278

---

experiment: in vitro; details: human, KB cells (nasopharyngeal carcinoma)
Kindly supply the reported CC50 values for the records listed here.
Numbers only, in µM.

In the examples that follow, each entry is paired with its recorded CC50.
Structure Notation: O=P(O)(O)C(O)(Cc1ccncc1)P(=O)(O)O
CC50, µM: 171
--
Structure Notation: CCCCCCCCCCCCCC(O)(P(=O)(O)O)P(=O)(O)O
CC50, µM: 36.8
--
Structure Notation: O=P(O)(O)C(Nc1ccccn1)P(=O)(O)O
CC50, µM: 465

Attention now turns to another entry.
Measured CC50, CCOP(=O)(OCC)C(Nc1cc(C)ccn1)P(=O)(OCC)OCC : 127

---

For each entry below, report its Decrease value.
test system: Cricetinae gen. sp.; assay: Percent decrease of amebic liver abscess (mg) formation in Entamoeba histolytica infected hamsters (treated at 10 mg/kg ip once a day for 5 days); format: functional; settings: route intraperitoneal
Give bare numbers, in %.

Observe how each entry below is paired with its result.
Structure Notation: O=P(O)(O)C(Nc1cc(Br)cc(Br)n1)P(=O)(O)O
Unit Text: %
Decrease: 14
--
Structure Notation: CN(CCOc1ccccc1)CCC(O)(P(=O)(O)O)P(=O)(O)O
Unit Text: %
Decrease: -19
--
Structure Notation: O=P(O)(O)C(Nc1cccc(-c2ccccc2)c1)P(=O)(O)O
Unit Text: %
Decrease: 36
--
Structure Notation: CN(CCCCc1ccccc1)CCC(O)(P(=O)(O)O)P(=O)(O)O
Unit Text: %
Decrease: 89

Bench note, Cricetinae gen. sp.: CCCCCCCCCCC(O)(P(=O)(O)O)P(=O)(O)O , Decrease reads 68

---

assay: Therapeutic index was expressed as ratio of LD50 for KB cell line to IC50 against Entamoeba histolytica; assay type: cell-based; settings: human, KB cells; read-out: TI
Classify: Fulfilled when selectivity ratio is strictly less than 10; Not fulfilled when selectivity ratio is not.

A selection of reference data follows.
Molecule: CCCCN(CC)C(P(=O)(O)O)P(=O)(O)O
Assigned Category: Not fulfilled
//
Molecule: O=P(O)(O)C(Nc1cc(Br)cc(Br)n1)P(=O)(O)O
Assigned Category: Not fulfilled
//
Molecule: CC(C)(C)c1cc(NC(P(=O)(O)O)P(=O)(O)O)cc(C(C)(C)C)c1
Assigned Category: Not fulfilled
//
Molecule: CCCCCCCCCCCCCC(O)(P(=O)(O)O)P(=O)(O)O
Assigned Category: Fulfilled
//
Molecule: O=P(O)(O)C(NC1CC1)P(=O)(O)O
Assigned Category: Fulfilled
//
Molecule: O=P(O)(O)C(Nc1ccc(Cl)nc1)P(=O)(O)O
Assigned Category: Not fulfilled

Hi there! Is selectivity ratio for O=P(O)(O)C(NCCCc1ccccc1)P(=O)(O)O below 10, do you know?
Not fulfilled

Determine if CC(C)CCNC(P(=O)(O)O)P(=O)(O)O shows selectivity ratio strictly lower than 10.
Not fulfilled
